# assay info: yeast display, Sf9 membrane polyspecificity reagent, FACS + sequencing; frameworks hold sequencing errors
reported metric: polyreactivity (PSR sort gate)

Examples from the recorded data:
QDQLVDSGGGLVQAGGSLRLSSSDSGSIFRYYTMGWYRQSPGKERELVARISSSRSTNYADSVKGRFTISRDNAKNTVYLQMNSLKPEDTEVYYCAARAFSWAGFYYWGQGTQVTVSS = low polyreactivity
QFQLVESGGRLVQPGGSLRLSCAASGGIFYGYAMGWYRKAPGKERELVAAISSTGGRTYYADSVKGRFTISRDNAKNTVYLQMNSLKPEDTAVSYCAAEDFTRQFEYWGQGTQVTVSS = low polyreactivity
QVQLVESGGGLVQAGGSLRLSCAASGRIFLWYAMGWYRQAPGKERELVAAISRTGGSTYYADSVKGRFTISRDNAKNTVYLQMNSLKPEDTAVYFCAAYHSYKTSWPQSGYWGQGTQVTVSS = high polyreactivity
QVQLVESGGGLVQAGGSLRLSCAASGYIFHRYVMGWYRQAPGKERELVASISWSGGSTYYADSVKGRFTISRDNAKNTVYLQMTSLKPEDTAVYYCGALSPYRRGYYWGQGTQVTVSS = high polyreactivity
QVQLVESGGGLVQEGGSLRLSCAASGIIFDGNARGWYRQAPGKEKELVASITSDSSTNYADSVKGRFTISRDNAKNTVYLQMNSLKPEDTAVYYCAAAHWIAPRSDYWGQGTQVTLSS = low polyreactivity
QVQIVESGRGLVQAGGSLRLTCAASGINFHFNDMGWYRQAPRKQRELVAAIDSTGSTNYADSVKGRFTISRDNAKNTVYLQMNSLKPEDTAVYYCAVLNHRVDSVLTRYYYWGQGTQVTVSS = low polyreactivity
QVQLVESGGGLVQAGGSLRLSCAASGITFRTNTMGWYRQAPGKEREFVAAISSNGGRTYYADSVKGRFTISRDNAKNTVYLQMNSLKPEDTAVYYCNARTKHRYEYDYWGQGTQVTVSS = high polyreactivity
QVQLVESGGGLVQAGGSLRLSCAASGRTFLPNAMGWYRQAPGKERELVAVITSGGSTNYADSVKGRFTISRDNAKNTVYLQMNSLKPEDTAVYYCAARRWSSSQGHWGKSAGYGYWGQGTQVTVSS = low polyreactivity

input: Assign polyreactivity (PSR sort gate) to the following record: "QVQLVESGGGLVQAGGSLRLSCAASGFTFKYNVMGWYIQAPGKERELVAAISSAGNTNYADSVKGRFTISRDNAKNTVYLQMNSLKPEDTAVYFCAKRRDTLYVGVEGYYWGQGTQVTVSS"
output: high polyreactivity

input: Assign polyreactivity (PSR sort gate) to the following record: "QVHLGESGARIDQAGGSLRLSCAASGRIFKYNAMGLYRQAPGKEREWVAAISSGGSTNYADTEKGRFTISRDNAKNTVYLQMNSLKPEDTAVYYCAADGTRVSSFHYLVWLGYWGQGTQVNVSS"
output: low polyreactivity

input: Assign polyreactivity (PSR sort gate) to the following record: "QEQLVESGGGLDQAGGSLRLSCAASGYTFVNYAMGWYRQAPGKERELVAAITSRGSSTYYADSVKGRFTISRDNAKNTVYLQMNSLKPEDTAVYYCAAYSSSLQGGYWGQGTQVTVSS"
output: high polyreactivity
